System: Bacillus subtilis
ASSAY TEXT: cleaved RNA product abundance (RNA/gDNA barcode ratio) relative to median wild-type variant (ratio to wild type); higher = more accumulation of the downstream cleavage product
RUN PARAMETERS: experiment (reporter, strain, medium): exp 4a: truncated aprE reporter, strain BJT201 with 2% xylose (RNase J1 expressed); cleavage site: cggR-gapA (positions -7 to +36 mutated)
Label criterion met when cleaved RNA product abundance is at or above 0.3; anything below gets criterion not met.

ACAGACGAAGGAGCCGCAAAGAAGTTATTAAGAGAAGAATAAACCCTCAATATAAATATCTCTCACTTATTTAAA = criterion not met
ACAGACGAAGGAGCCGCATAGAAGTTATAAAGGGATGAATAATCCCTCAATATAAATATCTCTCACTTATTTAAA = criterion met
ACAGACGAAGGAGCCGCAAAGAAATTATTAAGGGATGAATAATCCCTGAATATAAATATCTCTCACTTATTTAAA = criterion met

Does cleaved RNA product abundance meet or surpass 0.3 for ACAGACGAAGGAGCCGCAAAGAAGTTATTAAGGGATGAATAATACCTCAATATAAATATCTCTCACTTATTTAAA ?
criterion not met

Does cleaved RNA product abundance meet or surpass 0.3 for ACAGACGAAGGAGCCGCAAAGAATTTATTAAGGGATGAATAATCCCTCAATATAAATATTTCTCACTTATTTAAA ?
criterion not met

Does cleaved RNA product abundance meet or surpass 0.3 for ACAGACGAAGGAGCCGCGAAGAAGTTATTAAGGGATGAATAATCCCTCAAAATAAATATCTCTCACTTATTTAAA ?
criterion met

Does cleaved RNA product abundance meet or surpass 0.3 for ACAGACGAAGGAGCCGCAAAGAAGTTATTAAGGAATAAATAATCCCTCAATATAAATATCTCTCACTTATTTAAA ?
criterion not met

###

Tested on: Bacillus subtilis
ASSAY TEXT: cleaved RNA product abundance (RNA/gDNA barcode ratio) relative to median wild-type variant (ratio to wild type); higher = more accumulation of the downstream cleavage product
RUN PARAMETERS: experiment (reporter, strain, medium): exp 4a: truncated aprE reporter, strain BJT201 with 2% xylose (RNase J1 expressed); cleavage site: cggR-gapA (positions -7 to +36 mutated)
Label 1 when cleaved RNA product abundance is at or above 0.4; anything below gets -1.

Some solved cases for reference:
ACAGACGAAGGAGCCGCAAAGAAGTTAATAAGGGATGAATAATCCTTCAATATAAATATCTCTCACTTATTTAAA = -1
ACAGACGAAGGAGCCGCAAAGCAGTTATTAAGGGATGAGTAATCCCTCAATATAAATATCTCTCACTTATTTAAA = 1

Does cleaved RNA product abundance meet or surpass 0.4 for ACAGACGAAGGAGCCGCAAAGAAGTTATTAAGGGATGAATAATCCCTCAACATAAATATCTCTCACTTATTTAAA ?
-1

Does cleaved RNA product abundance meet or surpass 0.4 for ACAGACGAAGGAGCCGCAAAGAAGGTATTAAGGGATGAATAATCCCTAAATATAAATATCTCTCACTTATTTAAA ?
1

###

Tested on: Bacillus subtilis
ASSAY TEXT: cleaved RNA product abundance (RNA/gDNA barcode ratio) relative to median wild-type variant (ratio to wild type); higher = more accumulation of the downstream cleavage product
RUN PARAMETERS: experiment (reporter, strain, medium): exp 4a: truncated aprE reporter, strain BJT201 with 2% xylose (RNase J1 expressed); cleavage site: cggR-gapA (positions -7 to +36 mutated)
// cleaved RNA product abundance lookup, one value per entry

Worked cases, answers included:
ACAGACGAAGGAGCCGCAAAGAAGTTATTATGGGATGAATAATCCCTCATTATAAATATCTCTCACTTATTTAAA = 0.528
ACAGACGAAGGAGCCGCAAAGAAGTTATTAAGGGATGAATAATCCCTCAATATAAATATGTCTCACTTATTTAAA = 0.713
ACAGACGAAGGAGCCGCAAAGAAGTTATTAAGGGATGAATAGTCCCTGAATATAAATATCTCTCACTTATTTAAA = 0.334
ACAGACGAAGGAGCCGCAAAGAATTTAATAAGGGATGAATAATCCCTCAATATAAATATCTCTCACTTATTTAAA = 0.309
ACAGACGAAGGAGCCGCAAAGAAGATATTAAGGGATGAATAAACCCTCAATATAAATATCTCTCACTTATTTAAA = 0.574

Using the record for ACAGACGAAGGAGCCGCAAAGAAGTTATTAAGGGATGAATAATGCCACAATATAAATATCTCTCACTTATTTAAA , report its cleaved RNA product abundance.
0.0904

Using the record for ACAGACGAAGGAGCCGCAAGGAAGTTATTAAGGGATGAATAATCCCTCAAAATAAATATCTCTCACTTATTTAAA , report its cleaved RNA product abundance.
0.314

###

System: Bacillus subtilis
ASSAY TEXT: cleaved RNA product abundance (RNA/gDNA barcode ratio) relative to median wild-type variant (ratio to wild type); higher = more accumulation of the downstream cleavage product
RUN PARAMETERS: experiment (reporter, strain, medium): exp 8a: truncated aprE reporter, strain BJT201 with 2% xylose (RNase J1 expressed); cleavage site: glnRA (positions -5 to +31 mutated)
REPORTED PROPERTY: cleaved RNA product abundance
Would you mind answering with just the numeric figure?

Worked cases, answers included:
CGACATGTCCCGCTTCTTTCATTAATCCGTTAGCAACTTTTTTGCTATATTCATTTACCTTTTAAGAGGAGGAAT = 0.521
CGACATGTCCCGCTTCTTTCATTAATCCGTTAGTAACTGTCTTGCTATATACATTTACCTTTTAAGAGGAGGAAT = 0.231
CGACATGTCCCGCTTCTTTCATTAATCCGTTCGCAACTGTTTTGTTATATACATTTACCTTTTAAGAGGAGGAAT = 0.411
CGACATGTCCCGCTTCTTTCATTAATCCGTTAGCAACAGTTTTGCTATATACATTTACCATTTAAGAGGAGGAAT = 0.522
CGACATGTCCCGCTTCTTTCATTAATCCATTAACAACTGTTTTGCTATATACATTTACCTTTTAAGAGGAGGAAT = 0.198

Here is the next item to consider.
Using the record for CGACATGTCCCGCTTCTTTCATTAATCAGTTAGCAACAGTTTTGCTATATACATTTACCTTTTAAGAGGAGGAAT , report its cleaved RNA product abundance.
0.832

###

// cleaved RNA product abundance lookup, one value per entry
Test system: Bacillus subtilis
ASSAY TEXT: cleaved RNA product abundance (RNA/gDNA barcode ratio) relative to median wild-type variant (ratio to wild type); higher = more accumulation of the downstream cleavage product
RUN PARAMETERS: experiment (reporter, strain, medium): exp 4a: truncated aprE reporter, strain BJT201 with 2% xylose (RNase J1 expressed); cleavage site: cggR-gapA (positions -7 to +36 mutated)
Would you mind answering with just the numeric figure?

Worked cases, answers included:
ACAGACGAAGGAGCCGCAAAGAAGTTATTAAGGGATGAATAATCCCTCTATATAATTATCTCTCACTTATTTAAA = 0.309
ACAGACGAAGGAGCCGCAAAGAAGTTATTAAGGTATGAGTAATCCCTCAATATAAATATCTCTCACTTATTTAAA = 0.224

Using the record for ACAGACGAAGGAGCCGCAAAGAAGTTATTAATGGGTGAATAATCCCTCAATATAAATATCTCTCACTTATTTAAA , report its cleaved RNA product abundance.
0.188

Using the record for ACAGACGAAGGAGCCGCAAAGAAGTTATTAAGGGATGAATATTCCATCAATATAAATATCTCTCACTTATTTAAA , report its cleaved RNA product abundance.
0.312

###

Tested on: Bacillus subtilis
ASSAY TEXT: cleaved RNA product abundance (RNA/gDNA barcode ratio) relative to median wild-type variant (ratio to wild type); higher = more accumulation of the downstream cleavage product
RUN PARAMETERS: experiment (reporter, strain, medium): exp 2b: truncated aprE reporter, strain BJT200; cleavage site: cggR-gapA (positions -7 to +36 mutated)
// cleaved RNA product abundance lookup, one value per entry
Would you mind answering with just the numeric figure?

Worked cases, answers included:
ACAGACGAAGGAGCCGCAAAGAAGTTATTAAGGGAAGAATAATCCCTCAATATAAATTTCTCTCACTTATTTAAA = 0.471
ACAGACGAAGGAGCCGCAAAGAAGTTATTAAGGGATGAATAATCCTTCAATATAAATAACTCTCACTTATTTAAA = 0.395
ACAGACGAAGGAGCCGCAAAGAGGTTATTAAGGGATGAATAATCCATCAATATAAATATCTCTCACTTATTTAAA = 0.176

Using the record for ACAGACGAAGGAGCCGCAAAGAAGGTATTAAGGGATGAATAATCCCTCAATATAAATATCTCTCACTTATTTAAA , report its cleaved RNA product abundance.
1.51

Using the record for ACAGACGAAGGAGCCGCAAAGAAGTTATTAAGGGATGATTAATCCCTCAAAATAAATATCTCTCACTTATTTAAA , report its cleaved RNA product abundance.
0.294

Using the record for ACAGACGAAGGAGCCGCTAAGAAGTTATTAAGGGATGCATAATCCCTCAATATAAATATCTCTCACTTATTTAAA , report its cleaved RNA product abundance.
0.968

Using the record for ACAGACGAAGGAGCCGCAAACAAGTTATTAAGGAATGAATAATCCCTCAATATAAATATCTCTCACTTATTTAAA , report its cleaved RNA product abundance.
0.115
